system name: human FOXO1 (constitutively active form Thr24Ala, Ser256Ala, Ser319Ala) (Homo sapiens, UniProt Q12778, S256A/S319A/T24A)
Sequence (Q12778 whole entry T24A/S256A/S319A): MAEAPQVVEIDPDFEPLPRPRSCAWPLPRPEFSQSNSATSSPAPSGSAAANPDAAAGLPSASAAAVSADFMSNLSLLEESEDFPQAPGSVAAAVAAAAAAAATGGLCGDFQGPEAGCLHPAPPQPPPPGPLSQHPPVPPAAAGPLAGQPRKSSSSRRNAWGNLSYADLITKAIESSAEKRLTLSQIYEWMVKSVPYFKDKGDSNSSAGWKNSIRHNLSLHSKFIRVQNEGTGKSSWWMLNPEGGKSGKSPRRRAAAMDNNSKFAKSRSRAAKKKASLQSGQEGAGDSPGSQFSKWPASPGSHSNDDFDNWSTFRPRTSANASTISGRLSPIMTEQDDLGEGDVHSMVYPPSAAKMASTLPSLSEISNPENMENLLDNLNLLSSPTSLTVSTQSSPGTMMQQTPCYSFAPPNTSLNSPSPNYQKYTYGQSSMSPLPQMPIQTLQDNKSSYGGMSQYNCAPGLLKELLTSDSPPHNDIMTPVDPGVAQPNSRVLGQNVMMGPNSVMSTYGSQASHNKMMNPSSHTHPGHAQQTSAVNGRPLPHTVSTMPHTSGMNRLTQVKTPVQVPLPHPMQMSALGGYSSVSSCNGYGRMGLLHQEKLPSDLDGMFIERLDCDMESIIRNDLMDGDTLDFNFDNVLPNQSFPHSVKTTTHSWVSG
protocol description: FOXO1 inhibitor activity assay: cell-based transcriptional (luciferase) reporter assay in HEK293 cells
condition info: HEK293 cells transfected with insulin response element firefly luciferase reporter, FOXO1 and Renilla luciferase; 10-point dose response 50 μM to 2.5 nM; 24 hours
pIC50: −log10 of the molar value.
recorded metric: pIC50

{"molecule": "CN(C)C1CCN(c2ccc(C(=O)Nc3cc(-c4nc5ccccc5[nH]4)[nH]n3)cn2)CC1", "recorded metric": "pIC50", "result": "> 7.00"}
{"molecule": "Cn1nc(NC(=O)c2ccc(N3CCC4(COC4)C3)nc2)cc1-c1nc2ccccc2[nH]1", "recorded metric": "pIC50", "result": "6.52 to 7.00"}
{"molecule": "CN1CCN(c2ccc(C(=O)Nc3cc(-c4nc5ccccc5[nH]4)n(CCO)n3)cn2)CC1", "recorded metric": "pIC50", "result": "6.00 to 6.52"}
{"molecule": "O=C(Nc1cc(-c2nc3cc(Br)ccc3[nH]2)[nH]n1)c1ccc(OCCO)c(Cl)c1", "recorded metric": "pIC50", "result": "6.00 to 6.52"}
{"molecule": "Cn1nc(NC(=O)c2ccc(N3CC[C@@H](O)C3)nc2)cc1-c1nc2ccccc2[nH]1", "recorded metric": "pIC50", "result": "6.00 to 6.52"}
{"molecule": "COc1cc(F)c2[nH]c(-c3cc(NC(=O)c4ccc(N5CCN(C6COC6)CC5)cc4)nn3C)nc2c1", "recorded metric": "pIC50", "result": "> 7.00"}
{"molecule": "O=C(Nc1cc(-c2nc3cccc(F)c3[nH]2)[nH]n1)c1ccc(N2CCC(CO)CC2)nc1", "recorded metric": "pIC50", "result": "> 7.00"}
{"molecule": "Cc1cc(N2CCOCC2)ncc1C(=O)Nc1cc(-c2nc3ccccc3[nH]2)n(C)n1", "recorded metric": "pIC50", "result": "< 6.00"}
{"molecule": "Cn1nc(NC(=O)c2ccc(N3CCC[C@H]3C(=O)O)nc2)cc1-c1nc2cccc(F)c2[nH]1", "recorded metric": "pIC50", "result": "< 6.00"}
{"molecule": "COC1CCN(c2ccc(C(=O)Nc3cc(-c4nc5cccc(F)c5[nH]4)n(C)n3)cn2)CC1", "recorded metric": "pIC50", "result": "6.52 to 7.00"}
{"molecule": "COCCN1CCN(c2ccc(C(=O)Nc3cc(-c4nc5ccccc5[nH]4)n(CCO)n3)cn2)CC1", "recorded metric": "pIC50", "result": "6.00 to 6.52"}
{"molecule": "COc1ccc2[nH]c(-c3cc(NC(=O)c4ccc(N5CCOCC5)nc4)n[nH]3)nc2c1", "recorded metric": "pIC50", "result": "< 6.00"}
{"molecule": "COc1cc(F)c2[nH]c(-c3cc(NC(=O)c4ccc(OC)c(Cl)c4)n[nH]3)nc2c1", "recorded metric": "pIC50", "result": "> 7.00"}
{"molecule": "CN1CCN(c2ccc(C(=O)Nc3cc(-c4nc5ccccc5[nH]4)n(C)n3)cn2)CC1=O", "recorded metric": "pIC50", "result": "6.52 to 7.00"}
{"molecule": "COCCN1CCN(c2ccc(C(=O)Nc3cc(-c4nc5ccccc5[nH]4)[nH]n3)cn2)CC1", "recorded metric": "pIC50", "result": "> 7.00"}
{"molecule": "COCC1CN(c2ccc(C(=O)Nc3cc(-c4nc5ccccc5[nH]4)n(C)n3)cn2)C1", "recorded metric": "pIC50", "result": "> 7.00"}
{"molecule": "Cn1nc(NC(=O)c2ccc(N3CC4(CC(O)C4)C3)nc2)cc1-c1nc2ccccc2[nH]1", "recorded metric": "pIC50", "result": "6.52 to 7.00"}
{"molecule": "Cc1cc(C(=O)Nc2cc(-c3nc4ccccc4[nH]3)[nH]n2)ccc1OCCO", "recorded metric": "pIC50", "result": "> 7.00"}
{"molecule": "Cn1nc(NC(=O)c2ccc(N3CCOC(CO)C3)nc2)cc1-c1nc2ccccc2[nH]1 (stereo not drawn)", "recorded metric": "pIC50", "result": "6.52 to 7.00"}
{"molecule": "O=C(Nc1cc(-c2nc3cc(OC(F)(F)F)ccc3[nH]2)[nH]n1)c1ccc(N2CCC(O)CC2)nc1", "recorded metric": "pIC50", "result": "< 6.00"}
{"molecule": "COc1ccc(C(=O)Nc2n[nH]c(-c3nc4ccccc4[nH]3)c2F)cc1Cl", "recorded metric": "pIC50", "result": "< 6.00"}
{"molecule": "Cn1nc(NC(=O)c2ccc(N3CC4(COC4)C3)nc2)cc1-c1nc2ccccc2[nH]1", "recorded metric": "pIC50", "result": "6.52 to 7.00"}
{"molecule": "O=C(Nc1cc(-c2nc3cc(F)ccc3[nH]2)[nH]n1)c1ccc(OCCO)c(Cl)c1", "recorded metric": "pIC50", "result": "6.52 to 7.00"}
{"molecule": "CCOC(=O)COc1ccc(C(=O)Nc2cc(-c3nc4ccccc4[nH]3)[nH]n2)cn1", "recorded metric": "pIC50", "result": "< 6.00"}
{"molecule": "CC1(O)CCCN(c2ccc(C(=O)Nc3cc(-c4nc5ccccc5[nH]4)[nH]n3)cn2)C1 (stereo not drawn)", "recorded metric": "pIC50", "result": "6.00 to 6.52"}
{"molecule": "O=C(Nc1cc(-c2nc3ccccc3[nH]2)[nH]n1)c1ccc(OCCO)c(F)c1", "recorded metric": "pIC50", "result": "6.00 to 6.52"}
{"molecule": "COC1CN(c2ccc(C(=O)Nc3cc(-c4nc5cc(F)ccc5[nH]4)[nH]n3)cn2)C1", "recorded metric": "pIC50", "result": "> 7.00"}
{"molecule": "CC1CN(c2ccc(C(=O)Nc3cc(-c4nc5ccccc5[nH]4)n(C)n3)cn2)CC(CO)O1 (single isomer, unassigned) [Compound A-293]", "recorded metric": "pIC50", "result": "6.52 to 7.00"}
{"molecule": "O=C(Nc1cc(-c2nc3ccccc3[nH]2)[nH]n1)c1ccc(N2CCC[C@H]2C(=O)O)nc1", "recorded metric": "pIC50", "result": "< 6.00"}
{"molecule": "COc1ccc(C(=O)Nc2cc(-c3nc4cc(N5CCOCC5)ccc4[nH]3)[nH]n2)cc1Cl", "recorded metric": "pIC50", "result": "> 7.00"}

From: patent US20230416228A1
